Provenance of the data: the supplement of paper PMC10567573

B1: C10orf62 (parent)
chain: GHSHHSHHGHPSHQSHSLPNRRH

# Variants of: B1
# Experiment summary: protein stability index of a GFP-peptide fusion (GPS, HEK-293T) (PSI 1-6); higher = more stable;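 further: lentivirally expressed fusions sorted by FACS into six bins by GFP to DsRed ratio, PSI derived from sequencing read proportions per bin multiplied by bin number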
# Applied conditions: c terminus: native
Classify as follows. Reported protein stability index greater than or equal to 3: y. Reported protein stability index below: n.

- Variant code: "S15G"
  Label value: "y"
- Variant code: "L18A"
  Label value: "y"
- Variant code: "Q14M"
  Label value: "y"
- Variant code: "Q14D"
  Label value: "y"
- Variant code: "H8I"
  Label value: "y"
- Variant code: "H2K"
  Label value: "y"
- Variant code: "H23I"
  Label value: "n"
- Variant code: "S17D"
  Label value: "n"
- Variant code: "S15E"
  Label value: "y"
- Variant code: "G9M"
  Label value: "y"
- Variant code: "H10T"
  Label value: "n"
- Variant code: "G9K"
  Label value: "y"
- Variant code: "G1T"
  Label value: "n"
- Variant code: "H2V"
  Label value: "n"
- Variant code: "R21H"
  Label value: "n"
- Variant code: "R21I"
  Label value: "n"
- Variant code: "H13C"
  Label value: "y"
- Variant code: "P11I"
  Label value: "y"
- Variant code: "R21A"
  Label value: "n"
- Variant code: "H2Q"
  Label value: "y"
- Variant code: "R21C"
  Label value: "y"
- Variant code: "L18Y"
  Label value: "n"
- Variant code: "H16C"
  Label value: "n"
- Variant code: "H7W"
  Label value: "n"
- Variant code: "H4E"
  Label value: "n"
- Variant code: "G9I"
  Label value: "y"
- Variant code: "H8T"
  Label value: "y"
- Variant code: "S6A"
  Label value: "y"
- Variant code: "H7R"
  Label value: "y"
- Variant code: "P11S"
  Label value: "n"
- Variant code: "H2L"
  Label value: "y"
- Variant code: "N20V"
  Label value: "y"
- Variant code: "H23P"
  Label value: "n"
- Variant code: "H4A"
  Label value: "n"
- Variant code: "H16V"
  Label value: "n"
- Variant code: "H5D"
  Label value: "y"
- Variant code: "H13E"
  Label value: "n"
- Variant code: "H2M"
  Label value: "y"
- Variant code: "S3Y"
  Label value: "y"
- Variant code: "H5K"
  Label value: "n"
- Variant code: "L18V"
  Label value: "n"
- Variant code: "P11A"
  Label value: "y"
- Variant code: "G1E"
  Label value: "n"
- Variant code: "H4P"
  Label value: "y"
- Variant code: "N20I"
  Label value: "n"
- Variant code: "H7A"
  Label value: "n"
